Test system: Human Dermal Fibroblasts adult (HDFa) cell line
Test: Cytotoxicity assay (MTT)
Assay type: cell-based
Conditions: HDFa, MTT, 24-h exposure time; read-out: LC50 (the source's name)
endpoint_label: CC50 (µM)
Your answer is read as µM, so omit the unit and give the number.

What is its CC50 for Human Dermal Fibroblasts adult (HDFa) cell line? Entry: O.O.O=C([O-])COCC(=O)[O-].[O]=[V+2] [VO(ODA), [VO(ODA)(H2O)2]]
296
